# Test system: PSA
# Assay details: Time required for PSA to hydrolyze 50% (t1/2)
# Format: ADME
# Assay setup: PSA (enzyme)
Assay endpoint: half-life

These recorded examples may help you get a feel for the data.
H-ANKISYQSSSTE-OH; 1.75 h
Ac-ANKISYQSSSTE-NH2; > 4 h
H-SQKANKISYQSSSTEERRLHYGENG-OH; 0.417 h

q: Return reported half-life; argument: `Ac-ANKASYQSSSTE-NH2`
a: 1.75 h

q: Return reported half-life; argument: `Ac-ANKISYQSAKTE-NH2`
a: 2.08 h

q: Return reported half-life; argument: `Ac-ANKISYQSSKTE-NH2`
a: 1.83 h

q: Return reported half-life; argument: `Ac-ANKISYQSASTE-NH2`
a: 2.42 h

q: Return reported half-life; argument: `H-SYQSSSTE-OH`
a: > 3 h

----------
Recorded MTD by entry
# Tested on: Mus musculus
# Assay details: Maximum nonlethal drug dose which could be administered (ip) to non tumor bearing nude mice for 5 consecutive days
# Format: functional
*1 amine or outer side, *2 acyl side, *3 side chain or, on linkers, in order; H or OH if unused. Where a SMILES comes first, the peptide text is derived from it. [ ]: non-standard residue; d: D form. The star is where a group is joined. Doxorubicin(3'-N) = COc1cccc2c1C(=O)c1c(O)c3c(c(O)c1C2=O)C[C@@](O)(C(=O)CO)C[C@@H]3O[C@H]1C[C@H](N*)[C@H](O)[C@H](C)O1; X1 = COc1cccc2c1C(=O)c1c(O)c3c(c(O)c1C2=O)C[C@@](O)(C(=O)CO)C[C@@H]3OC1CC(N*)C(O)C(C)O1; Glutaryl = O=C(CCCC(=O)[*:2])[*:1]; Hyp = O=C(O)[C@@H]1C[C@@H](O)CN1; Chg = N[C@H](C(=O)O)C1CCCCC1; Orn = NCCC[C@H](N)C(=O)O
Entry rule: numbers only, all in µM/kg.

COc1cccc2c1C(=O)c1c(O)c3c(c(O)c1C2=O)C[C@@](O)(C(=O)CO)C[C@@H]3O[C@H]1C[C@H](NC(=O)[C@H](CC(C)C)NC(=O)[C@H](CO)NC(=O)[C@H](CCC(N)=O)NC(=O)[C@@H](NC(=O)[C@H](CO)NC(=O)[C@H](C)NC(=O)[C@@H]2C[C@@H](O)CN2C(=O)CCCC(=O)O)C2CCCCC2)[C@H](O)[C@H](C)O1 (Glutaryl-[Hyp]AS[Chg]QSL-{Doxorubicin(3'-N)}); 28.6
COc1cccc2c1C(=O)c1c(O)c3c(c(O)c1C2=O)C[C@@](O)(C(=O)CO)C[C@@H]3OC1CC(NC(=O)[C@H](N)CC(C)C)C(O)C(C)O1 (stereo partly specified); 7.6
COc1cccc2c1C(=O)c1c(O)c3c(c(O)c1C2=O)C[C@@](O)(C(=O)CO)C[C@@H]3OC1CC(NC(=O)[C@H](CC(C)C)NC(=O)[C@H](CO)NC(=O)[C@@H](CCC(N)=O)NC(=O)[C@@H](NC(=O)[C@H](CO)NC(=O)[C@H](C)NC(=O)C2CC(O)CN2C(C)=O)C2CCCCC2)C(O)C(C)O1 (stereo partly specified); 22.7

q: Return reported MTD; argument: COc1cccc2c1C(=O)c1c(O)c3c(c(O)c1C2=O)C[C@@](O)(C(=O)CO)C[C@@H]3OC1CC(NC(=O)[C@H](CC(C)C)NC(=O)[C@H](CO)NC(=O)[C@H](CO)NC(=O)[C@H](CO)NC(=O)[C@H](CCC(N)=O)NC(=O)[C@H](Cc2ccc(O)cc2)NC(=O)[C@H](CCCN)NC(C)=O)C(O)C(C)O1 (stereo partly specified) (Ac-[Orn]YQSSSL-X1)
a: 33

q: Return reported MTD; argument: COc1cccc2c1C(=O)c1c(O)c3c(c(O)c1C2=O)C[C@@](O)(C(=O)CO)C[C@@H]3OC1CC(NC(=O)[C@H](CC(C)C)NC(=O)[C@H](CO)NC(=O)[C@H](CCC(N)=O)NC(=O)[C@H](Cc2ccc(O)cc2)NC(=O)[C@H](CO)NC(=O)[C@H](C)NC(=O)[C@H](CCCN)NC(C)=O)C(O)C(C)O1 (stereo partly specified)
a: 29.7

q: Return reported MTD; argument: COc1cccc2c1C(=O)c1c(O)c3c(c(O)c1C2=O)C[C@@](O)(C(=O)CO)C[C@@H]3OC1CC(NC(=O)[C@H](CC(C)C)NC(=O)[C@H](CO)NC(=O)[C@@H](CCC(N)=O)NC(=O)[C@@H](NC(=O)[C@H](CO)NC(=O)[C@H](C)NC(=O)C2CC(O)CN2C(=O)CCC(=O)O)C2CCCCC2)C(O)C(C)O1 (stereo partly specified)
a: 28.9

----------
# Tested on: PSA
# Assay details: Time required for PSA to hydrolyze 50% (t1/2)
# Assay type: ADME
# Assay setup: PSA (enzyme)
Assay endpoint: half-life

These recorded examples may help you get a feel for the data.
H-ANKISYQSS-OH; > 4 h
Ac-ANKISYYSSSTE-NH2; 2.5 h

Now for another entry.
q: // map `Ac-ANKASYQSASTE-NH2` to recorded half-life (system: PSA)
a: 0.833 h

----------
# System: Mus musculus
# Assay details: Maximum nonlethal drug dose which could be administered (ip) to non tumor bearing nude mice for 5 consecutive days
# Format: functional
Where a SMILES comes first, the peptide text is derived from it. [ ]: non-standard residue; d: D form. The star is where a group is joined. Doxorubicin(3'-N) = COc1cccc2c1C(=O)c1c(O)c3c(c(O)c1C2=O)C[C@@](O)(C(=O)CO)C[C@@H]3O[C@H]1C[C@H](N*)[C@H](O)[C@H](C)O1; X1 = COc1cccc2c1C(=O)c1c(O)c3c(c(O)c1C2=O)C[C@@](O)(C(=O)CO)C[C@@H]3OC1CC(N*)C(O)C(C)O1; Chg = N[C@H](C(=O)O)C1CCCCC1
Assay endpoint: MTD

These recorded examples may help you get a feel for the data.
COc1cccc2c1C(=O)c1c(O)c3c(c(O)c1C2=O)C[C@@](O)(C(=O)CO)C[C@@H]3O[C@H]1C[C@H](NC(=O)[C@H](CC(C)C)NC(=O)[C@H](CO)NC(=O)[C@H](CO)NC(=O)[C@H](CCC(N)=O)NC(=O)[C@H](Cc2ccc(O)cc2)NC(=O)[C@H](CO)NC(=O)[C@H](C)NC(=O)[C@H](CCCCN)NC(=O)[C@H](CC(N)=O)NC(=O)[C@H](C)NC(C)=O)[C@H](O)[C@H](C)O1 (Ac-ANKASYQSSL-{Doxorubicin(3'-N)}); >36.6 µM/kg
COc1cccc2c1C(=O)c1c(O)c3c(c(O)c1C2=O)C[C@@](O)(C(=O)CO)C[C@@H]3O[C@H]1C[C@H](N)[C@H](O)[C@H](C)O1; 2.8 µM/kg
COc1cccc2c1C(=O)c1c(O)c3c(c(O)c1C2=O)C[C@@](O)(C(=O)CO)C[C@@H]3OC1CC(NC(=O)[C@H](CC(C)C)NC(=O)[C@H](CO)NC(=O)[C@H](CO)NC(=O)[C@H](CO)NC(=O)[C@H](CCC(N)=O)NC(=O)[C@H](Cc2ccc(O)cc2)NC(=O)[C@H](CCCCN)NC(C)=O)C(O)C(C)O1 (stereo not given in full) (Ac-KYQSSSL-X1); 32.6 µM/kg
COc1cccc2c1C(=O)c1c(O)c3c(c(O)c1C2=O)C[C@@](O)(C(=O)CO)C[C@@H]3OC1CC(NC(=O)[C@H](CC(C)C)NC(=O)[C@H](CO)NC(=O)[C@@H](CCC(N)=O)NC(=O)[C@H](Cc2ccc(O)cc2)NC(=O)[C@H](CO)NC(=O)[C@H](C)NC(=O)[C@H](CCCN)NC(C)=O)C(O)C(C)O1 (stereo not given in full); >45.3 µM/kg

Now for another entry.
q: Return reported MTD; argument: COc1cccc2c1C(=O)c1c(O)c3c(c(O)c1C2=O)C[C@@](O)(C(=O)CO)C[C@@H]3OC1CC(NC(=O)[C@H](CC(C)C)NC(=O)[C@H](CO)NC(=O)[C@H](CCC(N)=O)NC(=O)[C@@H](NC(=O)[C@H](CO)NC(=O)[C@H](C)NC(=O)[C@H](CCCCN)NC(C)=O)C2CCCCC2)C(O)C(C)O1 (stereo not given in full) (Ac-KAS[Chg]QSL-X1)
a: 29.9 µM/kg
